Assay: AUC (0 to t) in Wistar rat at 1 mg/kg, iv
Assay type: ADME, organism-based
Conditions: in vivo
OUTCOME_MEASURE: AUC(0-t) (ng·h/mL)

> print(dat)
                           structure.string  unit.name  reported.measurement
1  COCCCN1C[C@@H]2[C@@H](CNC(=O)c3nc(C(C)C)n4ccccc34)[C@@H]2C1    ng·h/mL                   389

====

Assay: AUC (0 to t) in beagle dog at 1 mg/kg, po
Assay type: ADME, organism-based, Canis lupus familiaris
Settings: in vivo
OUTCOME_MEASURE: AUC(0-t) (ng·h/mL)

> print(dat)
                           structure.string  outcome.measure  unit.name  reported.measurement
1  COCCCN1C[C@@H]2[C@@H](CNC(=O)c3nc(C(C)C)n4ccccc34)[C@@H]2C1         AUC(0-t)    ng·h/mL                  1220

====

Assay: Oral bioavailability in Wistar rat at 10 mg/kg
Assay type: ADME, organism-based
Details: in vivo
# class assignment by measured bioavailability: low range = under 10%, mid range = from 10% up to 30%, high range = 30% and over

> print(dat)
                           structure.string  label.class
1  CC(C)c1nc(C(=O)NC[C@@H]2[C@H]3CN(CC(C)(C)O)C[C@@H]23)c2ccccn12   high range
2   CC(C)c1nc(C(=O)NC2CCN(CCF)CC2)c2ccccn12    mid range
3  CC(C)c1nc(C(=O)NC2CCN(CC3CC3)CC2)c2ccccn12    low range
4  CC(C)c1nc(C(=O)NC[C@@H]2[C@H]3CN(CC(C)(C)F)C[C@@H]23)c2ccccn12    low range
5  COC(=O)N1CCC(CN2C[C@@H]3[C@@H](CNC(=O)c4nc(C(C)C)n5ccccc45)[C@@H]3C2)CC1    mid range
6  CC(C)c1nc(C(=O)NC2CCN(C3CCOCC3)CC2)c2ccccn12   high range
7  COCCCN1C[C@@H]2[C@@H](CNC(=O)c3nc(C(C)C)n4ccccc34)[C@@H]2C1    mid range
8  CC(C)c1nc(C(=O)NC2CCN(CC3(O)CCOCC3)CC2)c2ccccn12   high range

====

Test: Oral bioavailability in Wistar rat at 3 mg/kg
Assay type: ADME, organism-based
Settings: in vivo
OUTCOME_MEASURE: bioavailability (%)

> print(dat)
                           structure.string  outcome.measure  reported.measurement
1  COCCCN1C[C@@H]2[C@@H](CNC(=O)c3nc(C(C)C)n4ccccc34)[C@@H]2C1  bioavailability                    26

====

Test: Oral bioavailability in beagle dog at 1 mg/kg
Format: ADME, organism-based, Canis lupus familiaris
Conditions: in vivo
OUTCOME_MEASURE: bioavailability

> print(dat)
                           structure.string  outcome.measure  reported.measurement
1  COCCCN1C[C@@H]2[C@@H](CNC(=O)c3nc(C(C)C)n4ccccc34)[C@@H]2C1  bioavailability                   94%

====

Experiment: Tmax in Wistar rat at 3 mg/kg, po
Format: ADME, organism-based
Settings: in vivo
OUTCOME_MEASURE: Tmax (min)

> print(dat)
                           structure.string  outcome.measure  reported.measurement
1  COCCCN1C[C@@H]2[C@@H](CNC(=O)c3nc(C(C)C)n4ccccc34)[C@@H]2C1             Tmax                    15
